Target: GTPase KRas [G12D]/RAF proto-oncogene serine/threonine-protein kinase (Homo sapiens, UniProt P01116+P04049, G12D)
Experiment: KRAS G12D/cRAF Binding Assay
pIC50: −log10 of the molar value.
outcome.measure: pIC50

Reference set, count: 3
In [3]: df
Out[3]:
                           structure_smiles  outcome_measure  data_value
0  C#Cc1c(F)ccc2cc(O)cc(-c3nc(OCCOC)c4c(N5CC6CCC(C6)C5)nc(OC[C@@]56CCCN5C[C@H](F)C6)nc4c3F)c12            pIC50        8.06
1  C#Cc1c(F)ccc2cc(O)cc(-c3nc(C#C)c4c(N5C6CCCC5CC6)nc(OCC5(CN(C)C)CC5)nc4c3F)c12            pIC50        8.11
2  C#Cc1c(F)ccc2cc(O)cc(-c3nc(C#CCC(C)C)c4c(N5CC6CCC(C6)C5)nc(OC[C@@]56CCCN5C[C@H](F)C6)nc4c3F)c12            pIC50        7.83

(P) [2H]C([2H])([2H])c1nc(-c2cc(O)cc3ccc(F)c(C#C)c23)c(F)c2nc(OC[C@@]34CCCN3C[C@H](F)C4)nc(N3CC4CCC(C4)C3)c12
(Q) C#Cc1c(F)ccc2cc(O)cc(-c3nc(C#CCOC)c4c(N5CC6CCC(C6)C5)nc(OC[C@@]56CCCN5C[C@H](F)C6)nc4c3F)c12
(R) C#Cc1c(F)ccc2cc(O)cc(-c3nc(C(=O)OCC)c4c(N5CC6CCC(C6)C5)nc(OC[C@@]56CCCN5C[C@H](F)C6)nc4c3F)c12
(S) C#Cc1c(F)ccc2cc(O)cc(-c3nc(C#CCCC#N)c4c(N5CC6CCC(C6)C5)nc(OC[C@@]56CCCN5C[C@H](F)C6)nc4c3F)c12
Hey, can you sort those compounds up there by pIC50, smallest first? # answer = labels listed in requested order S, Q, P, R
(S: 7.61, Q: 7.82, P: 8.04, R: 8.29)

====

Biological target: GTPase KRas (G12D) and Son of Sevenless Homolog 1 (SOS) (Homo sapiens, UniProt P01116+Q07889, G12D)
Assay: KRAS G12D/SOS1 Binding Assay
pIC50: −log10 of the molar value.
outcome.measure: pIC50

molecule	pIC50
C#Cc1c(F)ccc2cc(O)cc(-c3nc(C(=O)OCC)c4c(N5CC6CCC(C6)C5)nc(OC[C@@]56CCCN5C[C@H](F)C6)nc4c3F)c12 [US20250034169, Compound 13]	7.95
C#Cc1c(F)ccc2cc(O)cc(-c3nc(C#CCCC(C)C)c4c(N5CC6CCC(C6)C5)nc(OC[C@@]56CCCN5C[C@H](F)C6)nc4c3F)c12 [US20250034169, Compound 30]	7.87
C#Cc1c(F)ccc2cc(O)cc(-c3nc(OCCOC)c4c(N5CC6CCC(C6)C5)nc(OC[C@@]56CCCN5C[C@H](F)C6)nc4c3F)c12 [US20250034169, Compound 10]	7.86
C#Cc1c(F)ccc2cc(O)cc(-c3nc(C#C)c4c(N5C[C@H]6CC[C@@H]5C6)nc(OC[C@@]56CCCN5C[C@H](F)C6)nc4c3F)c12 [US20250034169, Compound 44]	7.53
C#Cc1c(F)ccc2cc(O)cc(-c3nc(C#C)c4c(N5CC6CCC(C6)C5)nc(OCC5CCCC5)nc4c3F)c12 [US20250034169, Compound 56]	7.80
C#Cc1c(F)ccc2cc(O)cc(-c3nc(C#CCCC#N)c4c(N5CC6CCC(C6)C5)nc(OC[C@@]56CCCN5C[C@H](F)C6)nc4c3F)c12 [US20250034169, Compound 31]	7.46

(1) C#Cc1c(F)ccc2cc(O)cc(-c3nc(C#C)c4c(N5CC6CCC(C6)C5)nc(OC[C@H]5CCCN5C)nc4c3F)c12 [US20250034169, Compound 50]
(2) C#Cc1c(F)ccc2cc(O)cc(-c3nc(OCC)c4c(N5CC6CCC(C6)C5)nc(OC[C@@]56CCCN5C[C@H](F)C6)nc4c3F)c12 [US20250034169, Compound 12]
Of the two listed items, which has the higher pIC50? First: 1 Second: 2 # answer = label of selected item 2
(2: 7.99, 1: 7.44)

====

Target: GTPase KRas (G12D) and Son of Sevenless Homolog 1 (SOS) (Homo sapiens, UniProt P01116+Q07889, G12D)
Test: KRAS G12D/SOS1 Binding Assay
outcome.measure: IC50 (nM)

molecule	IC50 (nM)
C#Cc1c(F)ccc2cc(O)cc(-c3nc(C#CCOC)c4c(N5CC6CCC(C6)C5)nc(OC[C@@]56CCCN5C[C@H](F)C6)nc4c3F)c12 [US20250034169, Compound 25]	16.8
C#Cc1c(F)ccc2cc(O)cc(-c3nc(C#C)c4c(N5C6CCCC5CC6)nc(OCC5(CN(C)C)CC5)nc4c3F)c12 [US20250034169, Compound 52]	15.2
C#Cc1c(F)ccc2cc(O)cc(-c3nc(C#CCC(C)C)c4c(N5CC6CCC(C6)C5)nc(OC[C@@]56CCCN5C[C@H](F)C6)nc4c3F)c12 [US20250034169, Compound 29]	15.9

====

Target: GTPase KRas (G12D) and Son of Sevenless Homolog 1 (SOS) (Homo sapiens, UniProt P01116+Q07889, G12D)
Assay: KRAS G12D/SOS1 Binding Assay
outcome.measure: IC50 (nM)

compound	outcome.measure	output.unit	data.value
C#Cc1c(F)ccc2cc(O)cc(-c3nc(C#C)c4c(N5C6CCCC5CC6)nc(OCC5(CN6CCCCC6)CC5)nc4c3F)c12 [US20250034169, Compound 53]	IC50	nM	14.6
[2H]C([2H])([2H])c1nc(-c2cc(O)cc3ccc(F)c(C#C)c23)c(F)c2nc(OC[C@@]34CCCN3C[C@H](F)C4)nc(N3CC4CCC(C4)C3)c12 [US20250034169, Compound 11]	IC50	nM	19.8
C#Cc1c(F)ccc2cc(O)cc(-c3nc(C#C)c4c(N5CC6CCC(C6)C5)nc(OCCC(F)(F)F)nc4c3F)c12 [US20250034169, Compound 55]	IC50	nM	14.8
C#Cc1c(F)ccc2cc(O)cc(-c3nc(C#C)c4c(N5CC6CCC(C6)C5)nc(OC[C@]56CCCN5C[C@H](F)C6)nc4c3F)c12 [US20250034169, Compound 49]	IC50	nM	15.7
C#Cc1nc(-c2cc(O)cc3ccc(F)c(CC)c23)c(F)c2nc(OC[C@@]34CCCN3C[C@H](F)C4)nc(N3CC4CCC(C4)C3)c12 [US20250034169, Compound 65]	IC50	nM	18.5
C#Cc1c(F)ccc2cc(O)cc(-c3nc(C#CC4CCCC4)c4c(N5CC6CCC(C6)C5)nc(OC[C@@]56CCCN5C[C@H](F)C6)nc4c3F)c12 [US20250034169, Compound 28]	IC50	nM	11.5
C#Cc1c(F)ccc2cc(O)cc(-c3nc(C#C)c4c(N5CCC[C@@H](C)C5)nc(OC[C@@]56CCCN5C[C@H](F)C6)nc4c3F)c12 [US20250034169, Compound 43]	IC50	nM	24.1
C#Cc1c(F)ccc2cc(O)cc(-c3nc(C#CCC)c4c(N5CC6CCC(C6)C5)nc(OC[C@@]56CCCN5C[C@H](F)C6)nc4c3F)c12 [US20250034169, Compound 24]	IC50	nM	15.1

(A) C#Cc1c(F)ccc2cc(O)cc(-c3nc(OCCC(F)(F)F)c4c(N5CC6CCC(C6)C5)nc(OC[C@@]56CCCN5C[C@H](F)C6)nc4c3F)c12 [US20250034169, Compound 9]
(B) C#Cc1c(F)ccc2cc(O)cc(-c3nc(C#C)c4c(N5CC6CCC(C6)C5)nc(OC[C@@H]5CCCN5C)nc4c3F)c12 [US20250034169, Compound 51]
(C) C#Cc1c(F)ccc2cc(O)cc(-c3nc(C#C)c4c(N5CC6CC(C6)C5)nc(OC[C@@]56CCCN5C[C@H](F)C6)nc4c3F)c12 [US20250034169, Compound 41]
Arrange these 3 compounds in increasing order of IC50. // rank by listing labels in the order requested A, B, C
(A: 12.6 nM, B: 20.8 nM, C: 31.4 nM)

====

Target: GTPase KRas [G12D]/RAF proto-oncogene serine/threonine-protein kinase (Homo sapiens, UniProt P01116+P04049, G12D)
Assay: KRAS G12D/cRAF Binding Assay
pIC50: −log10 of the molar value.
outcome.measure: pIC50

Answered examples (3):
In [3]: df
Out[3]:
                           structure_smiles  data_value
0  C#Cc1c(F)ccc2cc(O)cc(-c3nc(OCCC(F)(F)F)c4c(N5CC6CCC(C6)C5)nc(OC[C@@]56CCCN5C[C@H](F)C6)nc4c3F)c12        8.06
1  C#Cc1c(F)ccc2cc(O)cc(-c3nc(C#C)c4c(N5CC6CCC(C6)C5)nc(OC[C@@H]5CCCN5C)nc4c3F)c12        7.95
2  C#Cc1c(F)ccc2cc(O)cc(-c3nc(C#C)c4c(N5CC6CCC(C6)C5)nc(OCCC(F)(F)F)nc4c3F)c12        8.01

(1) C#Cc1c(F)ccc2cc(O)cc(-c3nc(C#C)c4c(N5C[C@H]6CC[C@@H]5C6)nc(OC[C@@]56CCCN5C[C@H](F)C6)nc4c3F)c12
(2) C#Cc1c(F)ccc2cc(O)cc(-c3nc(C#C)c4c(N5CC6CCC(C6)C5)nc(OC[C@]56CCCN5C[C@H](F)C6)nc4c3F)c12
Between 1 and 2 , whose recorded pIC50 is greater? // return label of chosen record 2
(2: 8.16, 1: 7.82)
